Would you kindly list inhibition at 10 µM for each of these compounds?
Target: Noradrenaline (NA) reuptake (Rattus norvegicus, UniProt Q63380)
Construct: synaptosomes are freshly isolated from areas of rat brain; from tissue; host or cells: rat hypothalamus synaptosomes (P2 fraction)
Sequence (Q63380 1-617): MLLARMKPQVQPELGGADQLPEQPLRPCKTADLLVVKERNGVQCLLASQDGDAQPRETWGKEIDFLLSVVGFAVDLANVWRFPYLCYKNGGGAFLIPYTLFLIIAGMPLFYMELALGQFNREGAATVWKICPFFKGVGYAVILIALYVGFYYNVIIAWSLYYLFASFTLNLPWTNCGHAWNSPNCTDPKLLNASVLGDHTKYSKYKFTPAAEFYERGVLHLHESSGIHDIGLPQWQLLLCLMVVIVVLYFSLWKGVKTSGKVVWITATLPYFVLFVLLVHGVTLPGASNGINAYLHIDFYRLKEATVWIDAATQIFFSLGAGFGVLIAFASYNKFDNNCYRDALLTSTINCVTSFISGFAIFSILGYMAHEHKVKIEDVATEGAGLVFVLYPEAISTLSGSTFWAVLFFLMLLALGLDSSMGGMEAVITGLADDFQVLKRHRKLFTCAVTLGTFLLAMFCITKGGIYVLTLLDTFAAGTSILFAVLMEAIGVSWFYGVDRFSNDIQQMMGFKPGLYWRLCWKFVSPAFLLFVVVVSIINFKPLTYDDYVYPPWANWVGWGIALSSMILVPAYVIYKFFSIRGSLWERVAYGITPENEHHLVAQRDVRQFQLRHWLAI
Experiment: Noradrenaline (NA) reuptake inhibition in rat brain synaptosomes (hypothalamus, P2 fraction)
Type: biochemical
Conditions: read-out: Na reuptake, % inhibition [10 μM]
Source text: Noradrenaline (NA) and Serotonin (5HT) Reuptake Inhibition In order to be able to carry out these studies in vitro, synaptosomes are freshly isolated from areas of rat brain. A so-called “P2” fraction prepared by the method of Gray and Whittaker (E. G. Gray and V. P. Whittaker (1962) J. Anat. 76, 79-88) is used in each case. For the NA uptake, these vesicular particles are isolated from the hypothalamus of male rat brains. […]
Structures can show the parent of a compound that is named as a salt.
Just the number please, in %, no unit attached.

Q: Given the compound CC(=O)N(CCCCc1ccccc1)C1CCC(C(c2ccccc2)N(C)C)CC1 (stereo not shown) [compound 98, hydrochloride] , what is its reported inhibition at 10 µM?
Result: 95

Q: Given the compound CN(C)C(c1ccccc1)C1CCC(N(Cc2ccccc2)C(=O)c2ccc(F)cc2)CC1 (stereo not shown) [compound 103, hydrochloride] , what is its reported inhibition at 10 µM?
Result: 87

Q: Given the compound CCC(=O)N(CCCCc1ccccc1)C1CCC(C(c2ccccc2)N(C)C)CC1 (stereo not shown) [compound 97, hydrochloride] , what is its reported inhibition at 10 µM?
Result: 94

Q: Given the compound CCC(CC)C(=O)NC1CCC(C(c2ccccc2)N(C)C)CC1 (stereo not shown) [compound 93, hydrochloride] , what is its reported inhibition at 10 µM?
Result: 48

Q: Given the compound CN(C)C(c1ccccc1)C1CCC(N(Cc2ccccc2)C(=O)c2ccccc2)CC1 (stereo not shown) [compound 104, hydrochloride] , what is its reported inhibition at 10 µM?
Result: 92

Q: Given the compound CCC(CC)C(=O)N(Cc1ccccc1)C1CCC(C(c2ccccc2)N(C)C)CC1 (stereo not shown) [compound 101, hydrochloride] , what is its reported inhibition at 10 µM?
Result: 86

Q: Given the compound CCC(CC)C(=O)N(c1ccccc1)C1CCC(C(c2ccccc2)N(C)C)CC1 (stereo not shown) [compound 105, hydrochloride] , what is its reported inhibition at 10 µM?
Result: 88

* * *

biological target: human μ-opiate receptor (Homo sapiens, UniProt P35372); test: Affinity for the human μ-opiate receptor ([3H]-naloxone displacement, SPA, CHO-K1 membrane preparation); type: binding; settings: read-out: μ-Opioid receptor, % inhibition [1 μM]
Sequence (P35372 whole entry): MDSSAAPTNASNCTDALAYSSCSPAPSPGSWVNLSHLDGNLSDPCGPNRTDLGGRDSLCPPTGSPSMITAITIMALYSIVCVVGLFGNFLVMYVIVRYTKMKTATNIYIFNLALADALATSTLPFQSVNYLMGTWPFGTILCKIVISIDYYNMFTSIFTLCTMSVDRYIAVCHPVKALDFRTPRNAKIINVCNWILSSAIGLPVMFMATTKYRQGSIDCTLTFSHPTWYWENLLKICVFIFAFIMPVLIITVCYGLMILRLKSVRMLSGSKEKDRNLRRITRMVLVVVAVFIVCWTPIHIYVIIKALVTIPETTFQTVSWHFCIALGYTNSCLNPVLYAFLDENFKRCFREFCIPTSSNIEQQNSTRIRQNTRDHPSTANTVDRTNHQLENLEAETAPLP
Would you kindly list inhibition at 1 µM for each of these compounds?
Just the number please, in %, no unit attached.

Q: Given the compound CN(C)C(c1ccccc1)C1CCC(CNC(=O)c2cccnc2Sc2ccc(Cl)cc2)CC1 (stereo not shown) , what is its reported inhibition at 1 µM?
Result: 84

Q: Given the compound CN(C)C(c1cccc(F)c1)C1CCC(CNC(=O)c2csc(-c3ccccc3)n2)CC1 (stereo not shown) , what is its reported inhibition at 1 µM?
Result: 85

Q: Given the compound CN(C)C(c1ccccc1)C1CCC(CNC(=O)c2cccs2)CC1 (stereo not shown) , what is its reported inhibition at 1 µM?
Result: 94

Q: Given the compound CN(C)C(c1ccc(F)cc1)C1CCC(CCNC(=O)c2csc(-c3ccccc3)n2)CC1 (stereo not shown) , what is its reported inhibition at 1 µM?
Result: 92
